Biological target: EthR (Mycobacterium tuberculosis)
Assay: Fluorescence-based thermal shift (DSF) against EthR
Assay type: binding
Details: fluorescent-based thermal shift against EthR, 100 μM compound
Examples of compounds with documented ΔT m follow.
readout: ΔT m

1. N#Cc1ccc(N2CCC(CNC(=O)N3CCCC3)CC2)cc1	+7.2 °C
2. CCOC(=O)c1ccc(N2CCC(CNC(=O)C3CCCC3)CC2)cc1	+5.5 °C
3. CCOC(=O)c1ccc(N2CCC(CNC(=O)N3CCCC3)CC2)cc1	+8.8 °C
4. O=C(CCC1CCCC1)Nc1cccc(N2CCCCC2)c1	+4.5 °C
5. O=C(NCC1CCN(c2ncccn2)CC1)N1CCCC1	+3.7 °C
6. O=C(NCC1CCN(c2ccccn2)CC1)N1CCCC1	+3.8 °C
7. CNCc1ccc(N2CCC(CCC(=O)N3CCCC3)CC2)cc1	+4.3 °C
8. O=C(CCC1CCCC1)N1CCCC1	+3.5 °C
9. N#Cc1ccc(N2CCC(CNC(=O)C3CCCC3)CC2)cc1	+5.9 °C
10. N#Cc1ccc(N2CCC(CCC(=O)N3CCCC3)CC2)cc1	+7.5 °C

* * *

Biological target: EthR (Mycobacterium tuberculosis, UniProt P9WMC1)
Sequence (P9WMC1 whole entry, looked up): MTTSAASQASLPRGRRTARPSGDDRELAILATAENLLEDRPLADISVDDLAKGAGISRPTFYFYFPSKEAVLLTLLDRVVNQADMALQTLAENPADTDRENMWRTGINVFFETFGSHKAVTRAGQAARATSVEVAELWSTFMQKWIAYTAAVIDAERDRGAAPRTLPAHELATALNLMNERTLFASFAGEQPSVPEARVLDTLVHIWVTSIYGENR
Assay: SPR functional assay: disruption of the interaction between EthR and its DNA operator
Type: biochemical
Conditions: disruption of EthR binding to its DNA operator, SPR; read-out: IC50 (SPR)
pIC50: −log10 of the molar value.
readout: pIC50

1) CNCc1ccc(N2CCCCC2)cc1	< 4.00

* * *

Examples of molecules with documented ΔT m follow.
Target: UniProt:P9WMC1
Experiment: Fluorescence-based thermal shift (DSF) against EthR
Assay type: binding
Conditions: fluorescent-based thermal shift against EthR, 100 μM compound
readout: ΔT m

1. CNCc1ccc(N2CCCCC2)cc1 [Compound 2]	+3.8 °C
2. CCOC(=O)c1ccc(N2CCC(CCC(=O)N3CCCC3)CC2)cc1 [Compound 16]	+9.3 °C
3. N#Cc1ccc(N2CCC(CCC(=O)NCc3cccc(N4CCCCC4)c3)CC2)cc1 [Compound 29]	+9.2 °C
4. CN(Cc1ccc(N2CCC(CCC(=O)N3CCCC3)CC2)cc1)C(=O)OC(C)(C)C [Compound 14]	+6.3 °C

* * *

Molecular target: UniProt P9WMC1
Test: SPR functional assay: disruption of the interaction between EthR and its DNA operator
Type: biochemical
pIC50: −log10 of the molar value.
readout: pIC50

1) O=C(CCC1CCCC1)N1CCCC1 [Compound 1]	3.55
2) N#Cc1ccc(N2CCC(CNC(=O)N3CCCC3)CC2)cc1 [Compound 17]	5.40
3) N#Cc1ccc(N2CCC(CCC(=O)NCc3ccc(N4CCCCC4)cc3)CC2)cc1 [Compound 28]	4.48
4) CN(Cc1ccc(N2CCC(CCC(=O)N3CCCC3)CC2)cc1)C(=O)OC(C)(C)C [Compound 14]	5.15
5) N#Cc1ccc(N2CCC(CCC(=O)N3CCCC3)CC2)cc1 [Compound 15]	5.52
6) CNCc1ccc(N2CCC(CCC(=O)N3CCCC3)CC2)cc1 [Compound 5]	4.46
7) O=C(NCC1CCN(c2ccccn2)CC1)N1CCCC1 [Compound 21]	4.66
8) CCOC(=O)c1ccc(N2CCC(CNC(=O)N3CCCC3)CC2)cc1 [Compound 18]	5.70
9) CCOC(=O)c1ccc(N2CCC(CCC(=O)N3CCCC3)CC2)cc1 [Compound 16]	5.52
10) O=C(NCC1CCN(c2ncccn2)CC1)N1CCCC1 [Compound 22]	4.70
11) N#Cc1ccc(N2CCC(CCC(=O)NCc3cccc(N4CCCCC4)c3)CC2)cc1 [Compound 29]	4.28
12) N#Cc1ccc(N2CCC(CNC(=O)C3CCCC3)CC2)cc1 [Compound 19]	4.60

// data source = paper PMC4759522
